# systemTested: UniProtKB P12821
# Sequence (P12821 30-1232 limits assumed): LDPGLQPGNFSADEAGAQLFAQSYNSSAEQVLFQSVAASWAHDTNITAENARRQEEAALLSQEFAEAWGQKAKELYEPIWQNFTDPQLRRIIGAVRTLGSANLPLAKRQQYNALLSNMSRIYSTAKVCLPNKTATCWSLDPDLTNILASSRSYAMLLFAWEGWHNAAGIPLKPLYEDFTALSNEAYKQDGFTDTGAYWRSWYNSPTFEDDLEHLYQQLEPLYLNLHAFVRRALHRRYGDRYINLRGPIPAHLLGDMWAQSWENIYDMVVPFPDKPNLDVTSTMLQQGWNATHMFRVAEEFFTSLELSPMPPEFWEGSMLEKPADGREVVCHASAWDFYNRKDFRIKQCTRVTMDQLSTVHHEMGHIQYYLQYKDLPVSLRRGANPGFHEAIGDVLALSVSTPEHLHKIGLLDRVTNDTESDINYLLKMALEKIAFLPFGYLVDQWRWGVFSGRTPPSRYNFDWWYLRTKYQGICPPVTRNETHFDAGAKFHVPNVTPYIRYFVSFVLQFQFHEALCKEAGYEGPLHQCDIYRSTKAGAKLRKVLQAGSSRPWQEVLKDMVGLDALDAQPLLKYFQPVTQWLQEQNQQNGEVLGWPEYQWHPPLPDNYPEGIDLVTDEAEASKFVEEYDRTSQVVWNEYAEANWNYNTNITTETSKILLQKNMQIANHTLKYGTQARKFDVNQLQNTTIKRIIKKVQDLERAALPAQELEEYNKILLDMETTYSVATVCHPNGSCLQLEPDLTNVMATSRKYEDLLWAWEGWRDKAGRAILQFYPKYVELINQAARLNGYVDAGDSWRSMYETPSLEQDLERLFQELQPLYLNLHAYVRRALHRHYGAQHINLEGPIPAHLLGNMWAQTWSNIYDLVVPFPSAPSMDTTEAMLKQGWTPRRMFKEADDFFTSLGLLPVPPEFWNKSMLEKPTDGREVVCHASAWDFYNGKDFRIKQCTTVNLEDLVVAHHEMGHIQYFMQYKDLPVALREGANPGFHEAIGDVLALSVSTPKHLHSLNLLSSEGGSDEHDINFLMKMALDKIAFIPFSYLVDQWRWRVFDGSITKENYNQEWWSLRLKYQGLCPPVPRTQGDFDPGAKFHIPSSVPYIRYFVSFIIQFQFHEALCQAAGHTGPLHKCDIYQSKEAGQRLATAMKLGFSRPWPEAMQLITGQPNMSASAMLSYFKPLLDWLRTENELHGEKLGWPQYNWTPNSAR
pIC50: −log10 of the molar value.
propertyMeasured: pIC50

CC(=O)N[C@@H](Cc1ccccc1)C(=O)SC[C@@H](C)C(=O)N1CCC[C@H]1C(=O)O ... 7.59
